// each record: one item and its MIC for Salmonella paratyphi-B
Answers are plain numbers, in µg/mL.

Before answering, review these 5 worked examples.
[H]/N=C(/N)N[C@H]1[C@H](O)[C@@H](O)[C@H](O[C@@H]2O[C@@H](C)[C@](O)(C=O)[C@H]2O[C@@H]2O[C@@H](CO)[C@H](O)[C@@H](O)[C@@H]2NC)[C@@H](N/C(N)=N\[H])[C@@H]1O [Streptomycin, reference compound] : 30
C[C@@H]([C@@H](c1ccccc1)n1cc(COC(=O)C=Cc2ccccc2)nn1)N1CCCC1 : 250
C[C@@H]([C@@H](c1ccccc1)n1cc(COC(=O)c2ccc([N+](=O)[O-])cc2)nn1)N1CCCC1 : 62.5
CC([C@@H](c1ccccc1)n1cc(CN(C)[C@@H](C)Cc2ccccc2)nn1)N1CCCC1 (stereo partly shown) : 250
COc1ccc(C(=O)OCc2cn([C@H](c3ccccc3)[C@H](C)N3CCCC3)nn2)cc1OC : 62.5

Batch: MIC for all items listed.
1. C[C@@H]([C@@H](c1ccccc1)n1cc(COC(=O)c2ccccc2Cl)nn1)N1CCCC1
2. C[C@@H]([C@@H](c1ccccc1)n1cc(CO)nn1)N1CCCC1

1: 125; 2: 250

---

Would you kindly list zone of inhibition at 1 mg/well for each of these molecules?
Test system: Klebsiella pneumoniae
Experiment: Antimicrobial well method, zone of inhibition
Format: cell-based
Procedure: Antimicrobial activity was carried out as described previously. Briefly, 20 mL of sterile Mueller Hinton agar (MHA) was poured in the petri plates and kept for solidification. After solidification, the test cultures were swabbed on the top of the media and kept for 10 min to dry. The required concentration (1 mg/well) of synthesized compounds 5a–l was added to each well and left for 30 min at RT for compound diffusion. […] The zone of inhibition was recorded in mm and the experiment was repeated twice.
Answers are plain numbers, in mm.

Before answering, review these 2 worked examples.
[H]/N=C(/N)N[C@H]1[C@H](O)[C@@H](O)[C@H](O[C@@H]2O[C@@H](C)[C@](O)(C=O)[C@H]2O[C@@H]2O[C@@H](CO)[C@H](O)[C@@H](O)[C@@H]2NC)[C@@H](N/C(N)=N\[H])[C@@H]1O [Streptomycin, reference compound] : 20
CC(C(c1ccccc1)n1cc(COC(=O)c2ccc(C(C)(C)C)cc2)nn1)N1CCCC1 (stereo not drawn) [5i] : 12

# zone of inhibition at 1 mg/well lookup, item C[C@@H]([C@@H](c1ccccc1)n1cc(CC2(O)CCCCC2)nn1)N1CCCC1 [5b]
10

---

Would you kindly list melting point for each of these compounds?

C[C@@H]([C@@H](c1ccccc1)n1cc(CC2(O)CCCCC2)nn1)N1CCCC1 [5b] : 137 to 138 °C

Batch: melting point for all items listed.
1. C[C@@H]([C@@H](c1ccccc1)n1cc(COC(=O)c2ccccc2Cl)nn1)N1CCCC1 [5k]
2. CC([C@@H](c1ccccc1)n1cc(CN(C)[C@@H](C)Cc2ccccc2)nn1)N1CCCC1 (stereo partly drawn) [5f]
3. C[C@@H]([C@@H](c1ccccc1)n1cc(COC(=O)C=Cc2ccccc2)nn1)N1CCCC1 [5c]
4. C[C@@H]([C@@H](c1ccccc1)n1cc(COC(=O)c2ccccc2)nn1)N1CCCC1 [5d]
5. CCC(C(=O)OCc1cn(C(c2ccccc2)C(C)N2CCCC2)nn1)c1ccccc1 (stereo not drawn) [5l]

101 to 102 °C
118 to 119 °C
140 to 141 °C
129 to 130 °C
127 to 129 °C
